// reported Ratio IC50 per item
Assay: Ratio of methyl alpha-D-mannoside IC50 to compound IC50 for binding affinity to Concanavalin A
Where a SMILES comes first, the peptide text is derived from it. Bridges are numbered along the chain shown (N, C = ends). Roman numbers before positions name the chains, in order. [ ]: non-standard residue; d: D form. The star is where a group is joined. αMan = OC[C@H]1O[C@H](*)[C@@H](O)[C@@H](O)[C@@H]1O; Mpa = O=C(O)CCS
I only need the number, thanks.

See these solved cases before continuing.
Exam item: Which Ratio IC50 value belongs to CO[C@H]1O[C@H](CO)[C@@H](O)[C@H](O)[C@@H]1O ?
Marked response: 1

Exam item: Which Ratio IC50 value belongs to NC(=O)[C@H](CCC(=O)O)NC(=O)[C@H](CCCCNC(=O)[C@H](CCCCNC(=O)[C@H](Cc1ccc(O)cc1)NC(=O)CCS[C@H]1O[C@H](CO)[C@@H](O)[C@H](O)[C@@H]1O)NC(=O)[C@H](Cc1ccc(O)cc1)NC(=O)CCS[C@@H]1O[C@@H](CO)[C@H](O)[C@@H](O)[C@H]1O)NC(=O)[C@H](CCCCNC(=O)[C@H](Cc1ccc(O)cc1)NC(=O)CCS[C@H]1O[C@H](CO)[C@@H](O)[C@H](O)[C@@H]1O)NC(=O)[C@H](Cc1ccc(O)cc1)NC(=O)CCS[C@@H]1O[C@@H](CO)[C@H](O)[C@@H](O)[C@H]1O ?
Marked response: 14.2

Exam item: Which Ratio IC50 value belongs to N=C(N)NCCC[C@H](NC(=O)[C@H](CCCCNC(=O)[C@H](CCCCNC(=O)[C@H](Cc1ccc(O)cc1)NC(=O)CCS[C@H]1O[C@H](CO)[C@@H](O)[C@H](O)[C@@H]1O)NC(=O)[C@H](Cc1ccc(O)cc1)NC(=O)CCS[C@@H]1O[C@@H](CO)[C@H](O)[C@@H](O)[C@H]1O)NC(=O)[C@H](CCCCNC(=O)[C@H](Cc1ccc(O)cc1)NC(=O)CCS[C@H]1O[C@H](CO)[C@@H](O)[C@H](O)[C@@H]1O)NC(=O)[C@H](Cc1ccc(O)cc1)NC(=O)CCS[C@@H]1O[C@@H](CO)[C@H](O)[C@@H](O)[C@H]1O)C(N)=O ?
Marked response: 21.3

Exam item: Which Ratio IC50 value belongs to NC(=O)[C@H](CCCCNC(=O)[C@H](CO)NC(=O)[C@H](CCCCNC(=O)[C@H](Cc1ccc(O)cc1)NC(=O)CCS[C@@H]1O[C@@H](CO)[C@H](O)[C@@H](O)[C@H]1O)NC(=O)[C@H](Cc1ccc(O)cc1)NC(=O)CCS[C@H]1O[C@H](CO)[C@@H](O)[C@H](O)[C@@H]1O)NC(=O)[C@H](CO)NC(=O)[C@H](CCCCNC(=O)[C@H](Cc1ccc(O)cc1)NC(=O)CCS[C@H]1O[C@H](CO)[C@@H](O)[C@H](O)[C@@H]1O)NC(=O)[C@H](Cc1ccc(O)cc1)NC(=O)CCS[C@H]1O[C@H](CO)[C@@H](O)[C@H](O)[C@@H]1O ?
Marked response: 20.6

Here's the next entry for you.
Exam item: Which Ratio IC50 value belongs to NC(=O)[C@H](CSSC[C@H](NC(=O)[C@H](Cc1ccc(O)cc1)NC(=O)CCS[C@H]1O[C@H](CO)[C@@H](O)[C@H](O)[C@@H]1O)C(N)=O)NC(=O)[C@H](Cc1ccc(O)cc1)NC(=O)CCS[C@H]1O[C@H](CO)[C@@H](O)[C@H](O)[C@@H]1O (I: [Mpa](αMan)-Tyr-Cys-NH2 / II: [Mpa](αMan)-Tyr-Cys-NH2; disulfide I:3-II:3) ?
Marked response: 12.7
